# pKd listing for each entry below
- testedOn: T1, His-tagged PD-L1 protein (human, UniProt Q9NZQ7 19-238)
- T1 construct: also called His-tagged antigen PD-L1 protein; human PD-L1; not shown: His tag
- assayExplanation: SPR, Biacore T200, multi-cycle; Fab captured on chip, His-tagged PD-L1 as analyte
# pKd: negative log10 of molar concentration; output just the value

* AS01817 (humanized Fab) (Fab, V domains shown, Purified humanized Fab) VH: EVQLVQSGAEVKKPGESLKISCKGSGYSFTSYSINWVRQAPGKGLEWMGYFYVGNGYTDYNEKFKGRVTITRDTSASTAYMELSSLRSEDTAVYYCARGGLPYYFDYWGQGTLVTVSS VL: DIQLTQSPSFLSASVGDRVTITCKTSQDVNTAVAWYQQKPGQPPKLLIYWASTRHTGVPSRFSGSGSGTDFTLTISSLQPEDFATYYCQQHYNTPLTFGGGTKLEIK | 9.03

// below: pKd requested for another binder
Inquiry: What value of pKd has been reported for the following binder? AS01824 (humanized Fab) (Fab, V domains shown, Purified humanized Fab) VH: QVQLVQSGSELKKPGASVKVSCKASGYTFTSYSINWVRQAPGKGLEWVAYFYVGNGYTDYNEKFKGRVTITADESTSTAYMELSSLRSEDTAVYYCARGGLPYYFDYWGQGTLVTVSS VL: EIVMTQSPATLSVSPGERATLSCKTSQDVNTAVAWYLQKPGQSPQLLIYWASTRHTGVPSRFSGSGSGTDYTLTISSLQPEDFATYYCQQHYNTPLTFGGGTKLEIK
Reply text: 9.06
